The measured values listed here are drawn from ChEMBL document CHEMBL4811250.

Task for the reader: assign each of the following compounds its reported inhibition.
System: Isocitrate dehydrogenase [NADP] cytoplasmic (Homo sapiens), O75874 [R132H]
Sequence (O75874 whole entry R132H): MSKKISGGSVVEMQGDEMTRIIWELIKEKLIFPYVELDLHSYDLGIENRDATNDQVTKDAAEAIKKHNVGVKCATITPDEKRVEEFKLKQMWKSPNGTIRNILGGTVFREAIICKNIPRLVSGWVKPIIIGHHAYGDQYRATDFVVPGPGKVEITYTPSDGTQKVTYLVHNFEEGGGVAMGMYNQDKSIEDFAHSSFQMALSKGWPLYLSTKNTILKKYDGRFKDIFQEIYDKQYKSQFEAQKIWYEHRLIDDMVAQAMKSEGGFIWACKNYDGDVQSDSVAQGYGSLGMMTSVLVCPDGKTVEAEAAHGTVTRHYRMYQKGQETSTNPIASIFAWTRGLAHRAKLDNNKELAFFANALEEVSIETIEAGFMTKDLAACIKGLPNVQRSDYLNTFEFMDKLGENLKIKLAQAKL
TEST_NAME: Inhibition of IDH1 R132H mutant (unknown origin) assessed as reduction in NADPH consumption using alpha-KG as substrate at 38 uM incubated for 5 mins by diaphorase/resazurin-coupled system relative to control

Supply inhibition value. Item: COc1ccc(OC)c(-n2c3c(cc(-c4c[nH]c(-c5ccccc5)n4)c2=O)C(=O)CC(C)(C)C3)c1
75%

Supply inhibition value. Item: CC1(C)CC(=O)c2cc(-c3nc(-c4ccc(Cl)cc4)cs3)c(=O)n(-c3ccccc3OCc3ccccc3)c2C1
38%

Supply inhibition value. Item: CCc1cccc(CC)c1-n1c(C)c(C(=O)NCC(=O)O)cc(-c2nc(-c3ccc(Cl)cc3)cs2)c1=O
106%

Supply inhibition value. Item: COc1c(C(=O)O)cccc1-n1c2c(cc(-c3nc(-c4ccc(Cl)cc4)cs3)c1=O)C(=O)CC(C)(C)C2
82%

Supply inhibition value. Item: COc1ccccc1Cn1c2c(cc(-c3nc(-c4ccc(Cl)cc4)cs3)c1=O)C(=O)CC(C)(C)C2
61%

Supply inhibition value. Item: CC(C)c1ccccc1-n1c2c(cc(-c3nc(-c4ccc(Cl)cc4)cs3)c1=O)C(=O)CC(C)(C)C2
62%

Supply inhibition value. Item: CCc1cccc(CC)c1-n1c(C)c(C(=O)NCCOC)cc(-c2nc(-c3ccc(Cl)cc3)cs2)c1=O
92%

Supply inhibition value. Item: COc1ncccc1-n1c2c(cc(-c3nc(-c4ccc(Cl)cc4)cs3)c1=O)C(=O)CC(C)(C)C2
97%

Supply inhibition value. Item: COc1ccc(OC)c(-n2c3c(cc(-c4nc(-c5ccc(Cl)cc5)cs4)c2=O)C(=O)CNC3)c1
75%

====

Tested on: Isocitrate dehydrogenase [NADP] cytoplasmic (Homo sapiens), O75874 [R132H]
TEST_NAME: Inhibition of IDH1 R132H mutant (unknown origin) assessed as reduction in NADPH consumption using alpha-KG as substrate at 38 uM incubated for 5 mins by diaphorase/resazurin-coupled system relative to control
RECORDED_METRIC: inhibition (%)
Form entry: value (%) — number only.

Provide Isocitrate dehydrogenase [NADP] cytoplasmic (Homo sapiens), O75874 [R132H] inhibition reading for COc1ccc(OC)c(-n2c3c(cc(-c4nc(-c5ccc(Cl)cc5)cs4)c2=O)C(=O)NCC3)c1 .
84

Provide Isocitrate dehydrogenase [NADP] cytoplasmic (Homo sapiens), O75874 [R132H] inhibition reading for CNc1ccccc1-n1c2c(cc(-c3nc(-c4ccc(Cl)cc4)cs3)c1=O)C(=O)CC(C)(C)C2 .
59

Provide Isocitrate dehydrogenase [NADP] cytoplasmic (Homo sapiens), O75874 [R132H] inhibition reading for CCc1cccc(CC)c1-n1c(C)c(C(=O)N2CCN(C)CC2)cc(-c2nc(-c3ccc(Cl)cc3)cs2)c1=O .
88

Provide Isocitrate dehydrogenase [NADP] cytoplasmic (Homo sapiens), O75874 [R132H] inhibition reading for CCc1cccc(CC)c1-n1c(C=C(C)C)c(C(=O)N2CCNCC2)cc(-c2nc(-c3ccc(Cl)cc3)cs2)c1=O .
101

Provide Isocitrate dehydrogenase [NADP] cytoplasmic (Homo sapiens), O75874 [R132H] inhibition reading for CC1(C)CC(=O)c2cc(-c3nc(-c4ccc(Cl)cc4)cs3)c(=O)n(-c3ccccc3C(F)(F)F)c2C1 .
96

Provide Isocitrate dehydrogenase [NADP] cytoplasmic (Homo sapiens), O75874 [R132H] inhibition reading for CN(C)c1ccccc1-n1c2c(cc(-c3nc(-c4ccc(Cl)cc4)cs3)c1=O)C(=O)CC(C)(C)C2 .
56

Provide Isocitrate dehydrogenase [NADP] cytoplasmic (Homo sapiens), O75874 [R132H] inhibition reading for CCc1cccc(CC)c1-n1c(C)c(C(=O)N2CCCCC2)cc(-c2nc(-c3ccc(Cl)cc3)cs2)c1=O .
51

Provide Isocitrate dehydrogenase [NADP] cytoplasmic (Homo sapiens), O75874 [R132H] inhibition reading for CCc1cccc(CC)c1-n1c(CC(C)C)c(C(=O)N2CCNCC2)cc(-c2nc(-c3ccc(Cl)cc3)cs2)c1=O .
98
